B1: Pistol ribozyme (parent)
chain: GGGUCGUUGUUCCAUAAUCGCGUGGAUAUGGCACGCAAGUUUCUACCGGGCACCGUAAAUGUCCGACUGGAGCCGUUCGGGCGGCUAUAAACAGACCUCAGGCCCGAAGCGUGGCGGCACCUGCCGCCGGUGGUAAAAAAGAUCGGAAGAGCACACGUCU

- Variants of: B1
- method-description: aptazyme ON/OFF ratio, guanine; higher = stronger switching; co-transcriptional cleavage with and without guanine
Please provide measured aptazyme ON/OFF ratio for the entries that follow.
Reply with just the number.

Kindly indicate its recorded aptazyme ON/OFF ratio. Item: U7C U8A G9C 1.04

Item U7A U8A G9U U10C U11C C13A : provide aptazyme ON/OFF ratio 1.04

Return reported aptazyme ON/OFF ratio. Input variant: U7C U8A G9U U10G U11C C12A C13U 1.27

Report aptazyme ON/OFF ratio, nothing else, for this variant: U7C U8C U11C C12A 1.33

Item U8G G9A U10C U11A C12A C13A : provide aptazyme ON/OFF ratio 1.15

Write down aptazyme ON/OFF ratio measured for item U8G U10A U11G C12A C13G 1.12

Specify aptazyme ON/OFF ratio for U7A U8G G9A U10A C12A and stop. 1.3

# return recorded aptazyme ON/OFF ratio for input U7G C12U C13G 1.21

For the variant U7G G9C U10C U11C C12G C13A , report aptazyme ON/OFF ratio. 1.08

Please report aptazyme ON/OFF ratio for the following variant: U8C G9C U11A C12A 1.22

Return aptazyme ON/OFF ratio for the following variant: U7A U8C G9A U11G C12U 1.79

Answer with the recorded aptazyme ON/OFF ratio of U7A G9A U11G C12A C13U only. 1.28

Report measured aptazyme ON/OFF ratio; entry is U8A G9C U10C 1.35

Read the entry U8G G9C U11G C12U C13A and write its reported aptazyme ON/OFF ratio. 1.1

Recall and state the measured aptazyme ON/OFF ratio for U7G G9U U10C U11C C12U . 1.41

Give me measured aptazyme ON/OFF ratio, please, for this variant: U8A G9U U10C C13U 1.15

Give recorded aptazyme ON/OFF ratio. U8G G9C U11A C13U 1.05

For the variant U7A U8C G9A U10A U11G C12A C13U , give its measured aptazyme ON/OFF ratio value. 1.16

Please list aptazyme ON/OFF ratio recorded for the variant U7G G9A U11G C12A C13U 1.07

Report measured aptazyme ON/OFF ratio; entry is U7A G9C U10G U11G C12G C13G 1.13

Query aptazyme ON/OFF ratio for U7C U8C C12G C13A 1.12

Please give the documented aptazyme ON/OFF ratio of U7A U8G G9A U10G U11G C12G 1.24

Identify the reported aptazyme ON/OFF ratio for the following entry. U7A U8C G9U U10A C12G C13U 1.32

For the variant U7A U8C G9C U10A U11A C12U , report aptazyme ON/OFF ratio. 1.07

Please look at this variant and report its aptazyme ON/OFF ratio: U7G U8C U10C U11G C13G 1.26

Read off the recorded aptazyme ON/OFF ratio for U7C U8A U10A U11A C12G C13U 1.23

Provide only the value of recorded aptazyme ON/OFF ratio for U7C U8G G9C U10C U11C C12U C13G 1.04

Hello, please tell me recorded aptazyme ON/OFF ratio for this one: U8A G9C U10C U11A C12G 1.03

Please indicate aptazyme ON/OFF ratio recorded for U7G G9C U10G U11C C13A 1.24

Give reported aptazyme ON/OFF ratio value for U7A U8A G9A U10A U11C C12U C13U 1.14

Please give the documented aptazyme ON/OFF ratio of U7A U8C G9U U10C U11A C12G C13G 1.22

Annotate the variant U7C U8G G9C U10G C12U C13A with its measured aptazyme ON/OFF ratio. 1.24

Kindly indicate its recorded aptazyme ON/OFF ratio. Item: U7G U8C G9U U11A C12A C13A 1.28

Please report aptazyme ON/OFF ratio for the following variant: U7C U8A C13G 1.11

Name the recorded aptazyme ON/OFF ratio of the variant listed here: G9U U10A U11A C12G 1.47

Return value of aptazyme ON/OFF ratio for input U7G U8C G9C U10A U11G C12G C13A , no commentary. 1.08

Consider the variant U7G U8A G9U U10A U11G C13G and give its recorded aptazyme ON/OFF ratio. 1.03

Give reported aptazyme ON/OFF ratio value for U8G G9U U10A U11G C13G 1.03

Answer with reported aptazyme ON/OFF ratio of U7G U8A G9U U11C C12U C13G 1.15

Determine from records and report aptazyme ON/OFF ratio for U7G U8C G9A U10A U11G C12A C13G 1.12

Indicate the recorded aptazyme ON/OFF ratio value for this variant: U8C G9C U10A C12A C13U 1.11

Give aptazyme ON/OFF ratio for U7C U8G G9C U10G U11G C12G C13G 1.09

Entry U7C U8G U10A U11G C12U C13G needs its aptazyme ON/OFF ratio filled in; supply it. 1.08

Answer with reported aptazyme ON/OFF ratio of G9C U11G C12A C13U 1.13

// Input: U7A G9A U11C C12G . Output its aptazyme ON/OFF ratio only. 1.18

Give me measured aptazyme ON/OFF ratio, please, for this variant: U7G U8G G9C U10G U11A C12G C13U 1.16

Provide aptazyme ON/OFF ratio value for the following variant: U8C G9U U10C U11G C13G 1.2

Read the entry U7G U8G G9C U11C C12A C13A and write its reported aptazyme ON/OFF ratio. 1.37

Annotate the variant U7C U8G U10C U11C C12U C13G with its measured aptazyme ON/OFF ratio. 1.23

Consider the variant U7A U8A G9C U10A U11G C12U C13G and give its recorded aptazyme ON/OFF ratio. 1.11

Please indicate aptazyme ON/OFF ratio recorded for U7C U8A G9U U11G C12A C13U 1.2

// Input: U7G U8A G9U U10C C12A C13U . Output its aptazyme ON/OFF ratio only. 1.15

Answer with the recorded aptazyme ON/OFF ratio for the variant listed here: U7C G9C C12G C13A 1.04

In one line, give reported aptazyme ON/OFF ratio of the entry U7A U8G U10G C12U C13A . 1.11

Return reported aptazyme ON/OFF ratio. Input variant: U7G U10C U11A C12U C13U 1.1

Using known records, supply aptazyme ON/OFF ratio for U7A G9C U10G U11A C13U 1.05

Give a short answer stating reported aptazyme ON/OFF ratio for G9A U10C U11G C12G C13U . 1.1
